Overview of reported drug sensitivity score across a group of compounds:
# Test system: CAL-85-1
# assay remarks: drug sensitivity score (DSS), CellTiter-Glo (DSS (AUC-based score)); higher = stronger drug effect (viability inhibition or cytotoxicity); extreme values may be limits of the assay
# run conditions: incubation time: 72 h
reported metric: drug sensitivity score

CC(=O)N(O)CCCCCNC(=O)CCC(=O)N(O)CCCCCNC(=O)CCC(=O)N(O)CCCCCN [Deferoxamine] : 0
Cn1cc(C2=Nc3cc(NC(=O)C(N)C4CCCCC4)cc4c3C2=CNNC4=O)cn1 (configuration not stated) : 13.3
Oc1ncnc2[nH]ncc12 [Allopurinol] : 0
CC(=O)c1c(C)c2cnc(Nc3ccc(N4CCNCC4)cn3)nc2n(C2CCCC2)c1=O [Palbociclib] : 0
C[C@]1(O)C[C@@H](c2nc(-c3ccc4ccc(-c5ccccc5)nc4c3)c3c(N)nccn32)C1 [Linsitinib] : 2.88
Nc1ncn([C@@H]2O[C@H](CO)[C@@H](O)[C@H]2O)c(=O)n1 [Azacitidine] : 0
CC1(C)CCC(CN2CCN(c3ccc(C(=O)NS(=O)(=O)c4ccc(NCC5CCOCC5)c([N+](=O)[O-])c4)c(Oc4cnc5[nH]ccc5c4)c3)CC2)=C(c2ccc(Cl)cc2)C1 [ABT-199] : 0

* * *

# System: DU-4475
# assay remarks: normalised response (% of control), CellTiter-Glo; higher = more viable cells (100 = DMSO, 0 = benzethonium chloride kill control)
# run conditions: incubation time: 72 h
reported metric: normalised response (%)

COc1cc2c(cc1O)CC[C@@H]1[C@@H]2CC[C@]2(C)[C@@H](O)CC[C@@H]12 [2-methoxyestradiol] (1 nM) : 99
CC1(C)CCC(CN2CCN(c3ccc(C(=O)NS(=O)(=O)c4ccc(NCC5CCOCC5)c([N+](=O)[O-])c4)c(Oc4cnc5[nH]ccc5c4)c3)CC2)=C(c2ccc(Cl)cc2)C1 [ABT-199] (1 nM) : 98.2
Nc1ncn([C@@H]2O[C@H](CO)[C@@H](O)[C@H]2O)c(=O)n1 [Azacitidine] (10 nM) : 102

* * *

Overview of reported normalised response across a group of compounds:
# Tested on: HCC1937
# assay remarks: normalised response (% of control), CellTiter-Glo; higher = more viable cells (100 = DMSO, 0 = benzethonium chloride kill control)
# run conditions: incubation time: 72 h
reported metric: normalised response (%)

CC[C@@H]1C(=O)OC[C@@H]1Cc1cncn1C [Pilocarpine] (4000 nM) : 92.6
CC1=C2C[C@H]3[C@@H](CC=C4C[C@@H](O)CC[C@@]43C)[C@@H]2CC[C@]12O[C@@H]1C[C@H](C)CN[C@H]1[C@H]2C [Cyclopamine] (10 nM) : 104
Nc1nc2[nH]cnc2c(=S)[nH]1 [Thioguanine] (10 nM) : 96.9
COc1cc(F)c(F)c(Nc2ccc(I)cc2F)c1NS(=O)(=O)C1(C[C@H](O)CO)CC1 [Refametinib] (1 nM) : 93.6

* * *

# System: BT-549
# assay remarks: normalised response (% of control), CellTox Green; higher = less cell death (100 = DMSO, 0 = benzethonium chloride kill control)
# run conditions: incubation time: 72 h
Overview of reported normalised response across a group of compounds:
reported metric: normalised response

Nc1nc2[nH]cnc2c(=S)[nH]1 [Thioguanine] (1000 nM) : 108%
Oc1ncnc2[nH]ncc12 [Allopurinol] (1000 nM) : 103%
CC[C@@H]1C(=O)OC[C@@H]1Cc1cncn1C [Pilocarpine] (40000 nM) : 107%
C[C@]1(O)C[C@@H](c2nc(-c3ccc4ccc(-c5ccccc5)nc4c3)c3c(N)nccn32)C1 [Linsitinib] (100 nM) : 102%
COc1cc(F)c(F)c(Nc2ccc(I)cc2F)c1NS(=O)(=O)C1(C[C@H](O)CO)CC1 [Refametinib] (100 nM) : 102%
